Tested on: WEHI-231 OE cells
Experiment: Viability by PI staining and FACS, WEHI-231 OE
Type: cell-based, murine
Settings: 24 hours
Quantity Kind: pIC50
Give bare numbers, as −log10 of the molar value.

GET /values?readout=pIC50&system=WEHI-231 OE cells&item= CCCCCCCCCCCCC/C=C/[C@@H](O)[C@H](CO)NC(C)=O [C2-ceramide]
5.52
